For each entry below, report its pIC50 value.
# subject.of.test: HBV core protein (UniProt P03146)
# Sequence (P03146 whole entry, looked up): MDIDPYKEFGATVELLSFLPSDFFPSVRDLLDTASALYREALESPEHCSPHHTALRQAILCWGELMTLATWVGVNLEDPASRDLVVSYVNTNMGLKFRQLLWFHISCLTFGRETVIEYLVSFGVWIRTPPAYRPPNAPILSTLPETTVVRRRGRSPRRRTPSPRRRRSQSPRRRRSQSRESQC
# Assay type: biochemical
# measurement.setup: read-out: Assembly Activity (IC50); BODIPY-FL labelled core protein, assembly started with NaCl, read after 6 min
pIC50: −log10 of the molar value.

Please tell me: pIC50 of Nc1nc2c(s1)CN(C(=O)c1cc3cccc(O)c3[nH]1)CC2 [Example 98] , system HBV core protein (UniProt P03146)? > 4.00

Give recorded pIC50 with HBV core protein (UniProt P03146) for the following compound: Nc1nc2c(s1)CN(C(=O)c1cc3c(F)ccc(F)c3[nH]1)CC2 [Example 170] > 5.30

Lab note: need pIC50 with HBV core protein (UniProt P03146) for entry Nc1nc2c(s1)CN(C(=O)c1cc3cc(F)ccc3[nH]1)CC2 [Example 196] , please look it up. > 5.30

Checklist item: pIC50 tested on HBV core protein (UniProt P03146), entry Cc1nc2c(s1)CN(C(=O)c1cc3c(Cl)ccc(Cl)c3[nH]1)CC2 [Example 186] , value? > 4.00

Item: O=C(c1cc2ccccc2[nH]1)N1CCc2nc(NC[C@H]3C[C@@H]4CC[C@H]3O4)sc2C1 (racemic) [Example 34] Test system: HBV core protein (UniProt P03146) Read-out: pIC50 Value: ? > 5.30

Notebook entry, HBV core protein (UniProt P03146) assay: pIC50 of Nc1nc2c(s1)CN(C(=O)c1cc3cccc(OC(F)(F)F)c3[nH]1)CC2 [Example 174] = ? > 5.30

Look up pIC50 with HBV core protein (UniProt P03146) for this compound: COC(C)(CO)CNc1nc2c(s1)CN(C(=O)c1cc3ccccc3[nH]1)CC2 (centres unmarked) [Example 283] 5.00 to 5.30

Query pIC50 on HBV core protein (UniProt P03146) for Cc1cc(Cl)cc2cc(C(=O)N3CCc4nc(N)sc4C3)[nH]c12 [Example 139] > 4.00

###

# subject.of.test: UniProtKB P03146
# Format: biochemical
# measurement.setup: read-out: Assembly Activity (IC50); BODIPY-FL labelled core protein, assembly started with NaCl, read after 6 min
pIC50: −log10 of the molar value.
Consider the following compounds; for each one, report its pIC50.

Please give the measured pIC50 for this compound: CCc1cc(F)cc2[nH]c(C(=O)N3CCc4nc(N[C@H]5CC[C@@H](O)CC5)sc4C3)cc12 [Example 394] > 5.30

Form field: reported pIC50 of O=C(c1cc2ccccc2[nH]1)N1CCc2nc(NC[C@@H]3C[C@@H]4CC[C@H]3O4)sc2C1 (racemic) [Example 33] > 5.30

Any idea what pIC50 was measured for COc1cccc2[nH]c(C(=O)N3CCc4nc(C)sc4C3)cc12 [Example 194] ? > 4.00

Query: pIC50; subject: CC1c2sc(N)nc2CCN1C(=O)c1cc2ccccc2[nH]1 (stereo not drawn) [Example 109] > 4.00

So what's the measured pIC50 for this one? Cc1nc2c(s1)CN(C(=O)c1cc3cc(F)cc(F)c3[nH]1)CC2 [Example 163] > 5.30

pIC50 lookup needed for O=C(Nc1nc2c(s1)CN(C(=O)c1cc3ccccc3[nH]1)CC2)C1CCC(O)CC1 (stereo not drawn) [Example 411] , thanks. > 5.30

Would you mind telling me what pIC50 value was observed for Cc1cc(F)cc2[nH]c(C(=O)N3CCc4nc(NCC5CCOC5)sc4C3)cc12 (stereo not drawn) [Example 120] ? > 5.30

Suppose we examine the compound CC1(C(=O)Nc2nc3c(s2)CN(C(=O)c2cc4ccccc4[nH]2)CC3)CC1 [Example 274] ; what pIC50 value has been reported? > 5.30

Value lookup for pIC50; key = CC(O)CNc1nc2c(s1)CN(C(=O)c1cc3c(Cl)cc(F)cc3[nH]1)CC2 (stereo not drawn) [Example 142] > 5.30

Quick one: pIC50 of O=C(Nc1nc2c(s1)CN(C(=O)c1cc3c(C(F)F)cccc3[nH]1)CC2)C1CCOCC1 [Example 400] ? > 5.30

Reported pIC50 for O=C(c1cc2c(F)cc(F)cc2[nH]1)N1CCc2nc(NCC3CCOC3)sc2C1 (stereo not drawn) [Example 119] : what is it? > 5.30

Requested field: pIC50. Item: O=C(Nc1nc2c(s1)CN(C(=O)c1cc3ccccc3[nH]1)CC2)C1CCCCO1 (stereo not drawn) [Example 315] 5.00 to 5.30

Query: pIC50; subject: O=C(Nc1nc2c(s1)CN(C(=O)c1cc3c(C(F)F)cc(F)cc3[nH]1)CC2)C1CCOCC1 [Example 402] > 5.30

Quick one: pIC50 of N#Cc1ccc(F)c2[nH]c(C(=O)N3CCc4nc(NCC5CCOC5)sc4C3)cc12 (stereo not drawn) [Example 117] ? > 4.00

Fill blank: measured pIC50 of the compound O=C(c1cc2ccccc2[nH]1)N1CCc2nc(NCC(F)(F)CO)sc2C1 [Example 225] is ____. > 5.30

Dear colleague, I am looking for the recorded pIC50 of the following compound: O=C(c1cc2ccccc2[nH]1)N1CCc2nc(NC3CCOCC3)sc2C1 [Example 206] > 5.30

Please report the recorded pIC50 for CC(C)OC(=O)[C@H](C)NP(=O)(OCC1(CNc2nc3c(s2)CN(C(=O)c2cc4c(F)cc(F)cc4[nH]2)CC3)CC1)Oc1ccccc1 (stereo partly drawn) [Example 37] . > 4.00

Item under review: O=C(c1cc2ccccc2[nH]1)N1CCc2nc(NC(CO)CO)sc2C1 [Example 43] . Reported pIC50? > 5.30

Fill blank: measured pIC50 of the compound CC(C)OC1(CNc2nc3c(s2)CN(C(=O)c2cc4ccccc4[nH]2)CC3)CCC1 [Example 413] is ____. > 5.30

Reported pIC50, compound Nc1nc2c(s1)CN(C(=O)c1cc3c(Cl)c(Cl)ccc3[nH]1)CC2 [Example 176] : ____ 5.00 to 5.30

What pIC50 value was documented for this compound, CCc1cc(F)cc2[nH]c(C(=O)N3CCc4nc(NC(=O)C5CCOCC5)sc4C3)cc12 [Example 403] ? > 5.30

What does the record list as pIC50 for CN(C)c1nc2c(s1)CN(C(=O)c1cc3c(Cl)cc(F)cc3[nH]1)CC2 [Example 209] ? 5.00 to 5.30

Give the measured pIC50 of O=C(c1cc2ccccc2[nH]1)N1CCc2nc(NCC3CNCCO3)sc2C1 (stereo not drawn) [Example 260] . > 5.30

Entry Cc1nc2c(s1)CN(C(=O)c1cc3c(F)cc(Cl)cc3[nH]1)CC2 [Example 165] has what pIC50? > 5.30

Look up pIC50: N#Cc1cccc2[nH]c(C(=O)N3CCc4nc(NCC5CCOC5)sc4C3)cc12 (stereo not drawn) [Example 104] 5.00 to 5.30

So what does the record say about pIC50 for CCc1cccc2[nH]c(C(=O)N3CCc4nc(NC(=O)C5CCOCC5)sc4C3)cc12 [Example 334] ? > 5.30

Param item = O=C(c1cc2c(F)c(F)c(F)cc2[nH]1)N1CCc2nc(NCC3CCOC3)sc2C1 (stereo not drawn) [Example 105] ; retrieve measured pIC50. > 5.30

Record request: pIC50 value, item Cc1cccc2[nH]c(C(=O)N3CCc4nc(NCC5CCOC5)sc4C3)cc12 (stereo not drawn) [Example 124] > 5.30

Fill blank: measured pIC50 of the compound O=C(c1cc2ccccc2[nH]1)N1CCc2nc(NCC3CCOC3)sc2C1 (stereo not drawn) [Example 91] is ____. > 5.30

Find the recorded pIC50 belonging to CCc1cc(F)cc2[nH]c(C(=O)N3CCc4nc(N)sc4C3)cc12 [Example 7] and report it. > 5.30

May I ask what pIC50 has been recorded for Cc1nc2c(s1)CN(C(=O)c1cc3cccc(OC(F)(F)F)c3[nH]1)CC2 [Example 183] ? > 4.00

Fill in the blank: the reported pIC50 of CCc1cccc2[nH]c(C(=O)N3CCc4nc(NCC5(O)CCC5)sc4C3)cc12 [Example 338] is ____. > 5.30

Please look up its pIC50: CC(=O)N1CCOCC1CNc1nc2c(s1)CN(C(=O)c1cc3ccccc3[nH]1)CC2 (stereo not drawn) [Example 232] 5.00 to 5.30

Numbers sourced from patent US11267825B2.
